Answer each item with its documented IC50.
# target-or-test-system: T1, human myostatin (mature, recombinant; R&D Systems) (human, UniProt O14793 267-375)
# T1 construct: biotinylated in the mRNA display selection; also called GDF-8; mature myostatin
# T1 sequence: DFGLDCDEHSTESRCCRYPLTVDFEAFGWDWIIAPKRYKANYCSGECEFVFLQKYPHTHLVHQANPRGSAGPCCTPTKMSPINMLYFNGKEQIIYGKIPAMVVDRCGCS
# protocol-summary: competitive HTRF, alanine scan
Answers are plain numbers, in nM.

[[record]]
binder = "3116_A06 S25A (designed binder) MGVSDVPRDLEVVAATPTSLLISWALPHQGKANYYRITYGETGGNSPVQEFTVPGRGVTATISGLKPGVDYTITVYAVTVTDTGYLKYKPISINYRTEIDKPSQHHHHHH"
reading = 0.8


For each of the binders below, state IC50.
1. 3116_A06 N33A (designed binder) MGVSDVPRDLEVVAATPTSLLISWSLPHQGKAAYYRITYGETGGNSPVQEFTVPGRGVTATISGLKPGVDYTITVYAVTVTDTGYLKYKPISINYRTEIDKPSQHHHHHH
2. 3116_A06 D82A (designed binder) MGVSDVPRDLEVVAATPTSLLISWSLPHQGKANYYRITYGETGGNSPVQEFTVPGRGVTATISGLKPGVDYTITVYAVTVTATGYLKYKPISINYRTEIDKPSQHHHHHH
3. 3116_A06 T81A (designed binder) MGVSDVPRDLEVVAATPTSLLISWSLPHQGKANYYRITYGETGGNSPVQEFTVPGRGVTATISGLKPGVDYTITVYAVTVADTGYLKYKPISINYRTEIDKPSQHHHHHH
4. 3116_A06 H28A (designed binder) MGVSDVPRDLEVVAATPTSLLISWSLPAQGKANYYRITYGETGGNSPVQEFTVPGRGVTATISGLKPGVDYTITVYAVTVTDTGYLKYKPISINYRTEIDKPSQHHHHHH
5. 3116_A06 K31A (designed binder) MGVSDVPRDLEVVAATPTSLLISWSLPHQGAANYYRITYGETGGNSPVQEFTVPGRGVTATISGLKPGVDYTITVYAVTVTDTGYLKYKPISINYRTEIDKPSQHHHHHH
6. 3116_A06 G84A (designed binder) MGVSDVPRDLEVVAATPTSLLISWSLPHQGKANYYRITYGETGGNSPVQEFTVPGRGVTATISGLKPGVDYTITVYAVTVTDTAYLKYKPISINYRTEIDKPSQHHHHHH

**Result**
1. 2
2. 0.8
3. 4.9
4. 0.8
5. 0.6
6. 2

Provenance of the data: patent US20170088602A1
